tested on: LXRb:RXRa (NR concentration 270 nM, RXRa partner concentration 90 nM); experiment: PBM binding z-score (relative to random genomic background probes); higher = stronger binding; sequences stand for … in GC…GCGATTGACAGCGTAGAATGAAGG
Values of PBM binding z-score greater than or equal to 4 map to true (1); values below map to false (0).

Reference set (3 entries):
ATATGTAGGTTAGGGTTATTCAGAAAGTAGGGAA: false (0)
ATATCTAGGTTAGGGTCATTCAGAAAGTAGGGAA: true (1)
CGAACTACGTCACCAGGACAGTGAAGAGGTTGGA: false (0)

Dear colleague, could you confirm whether `ATTTGTAGGTTAGGGTCATTCAGAAAGTAGGGAA` has PBM binding z-score at or above 4?
true (1)

Dear colleague, could you confirm whether `TCTGCTAGGTCAGTTGGGCAGCTAACGAGCTGCC` has PBM binding z-score at or above 4?
false (0)

Dear colleague, could you confirm whether `ACTAGGTGGTCAGCTGAGGTCACACACAATTCGG` has PBM binding z-score at or above 4?
false (0)

Dear colleague, could you confirm whether `CAACCTAGGTCACGAAAGGTCAAAGTCGAATGAC` has PBM binding z-score at or above 4?
true (1)

Dear colleague, could you confirm whether `GCTGCTAGGTCAACTGAAGGTCAGCTAAAGCTCG` has PBM binding z-score at or above 4?
false (0)

Dear colleague, could you confirm whether `CCTCCAAGGTCATAGGAGGTCAGTGAAGACAGAT` has PBM binding z-score at or above 4?
true (1)

Dear colleague, could you confirm whether `CCTTACGGGTCACTCTAGGTTATAGCATCGGAGT` has PBM binding z-score at or above 4?
true (1)

Dear colleague, could you confirm whether `CCTTACGGGTCACGGGGTTATAGCACGACGAGCG` has PBM binding z-score at or above 4?
true (1)

Dear colleague, could you confirm whether `TGAATGAGGTTTAAGATCAGGGAACGTGGCGTCG` has PBM binding z-score at or above 4?
false (0)

====

tested on: PXR:RXRa (NR concentration 270 nM, RXRa partner concentration 90 nM); experiment: PBM binding z-score (relative to random genomic background probes); higher = stronger binding; sequences stand for … in GC…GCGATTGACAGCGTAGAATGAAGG
Values of PBM binding z-score greater than or equal to 3 map to T; values below map to F.

TCGAGTAGCTTACGGGGGCATTCAGGGATGAAGA: F
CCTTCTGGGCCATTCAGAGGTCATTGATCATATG: T
CGTCAAAGTTCAACTAAGGTAACGTATAGCACGC: T
CCCACTGGGCCATTCAGAGGTCATTGATCATATG: T
CGAACTCGGTCAAAGGACAGTGAAAGGCGACGTA: F

Dear colleague, could you confirm whether `AGTCAAAGTTCAGGACGAGGTAATGTAAAGCACG` has PBM binding z-score at or above 3?
T

Dear colleague, could you confirm whether `TCGAGTAGGTTATGGGGGCATTCAGGGATGAAGA` has PBM binding z-score at or above 3?
F

Dear colleague, could you confirm whether `ATAGGTAGGTTAGGGTCATTCAGAAAGTAGGGAA` has PBM binding z-score at or above 3?
T

Dear colleague, could you confirm whether `ATATGTAGGTTAGGGTCATGCAGAAAGTAGGGAA` has PBM binding z-score at or above 3?
T

Dear colleague, could you confirm whether `CCTACTGGGCCATTCAGAGGTCATCGATCATATG` has PBM binding z-score at or above 3?
T

Dear colleague, could you confirm whether `ACTTACGGGTCAACGAAGTTATAGCACGCGTATA` has PBM binding z-score at or above 3?
T

Dear colleague, could you confirm whether `CCTGCTAGGTCAATGGTCAGCTAAAGCAGCTCGC` has PBM binding z-score at or above 3?
F
